The values you see were collected from PubChem BioAssay.

experiment: modulators of HCV replicon luciferase signal, primary screen, HCV replication inhibitor project, Huh7 cells, luciferase reporter (AID 1109); conditions: 48 h, higher = more signal;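 note: huh7 hepatoma cells harbouring a luciferase neomycin HCV replicon reporter; luciferase luminescence as measure of HCV replicon replication; test concentration not given here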
Tick Yes if z-score is -0.3 or greater. Tick No if z-score is less than -0.3.

O=C1C=C[C@@H](O)[C@@H]2[C@@H]3C(=O)N(C4CCCCC4)C(=O)[C@@H]3CC[C@@H]12 : No
O=C1[C@H]2[C@H]3[C@H](O)[C@H](O)CC(=NOC[C@@H](O)COCc4ccco4)[C@@H]3CC[C@H]2C(=O)N1C1CCCCC1 : No
COC(=O)[C@H](C)NC(=O)CCC1CC(OC(=O)NCc2cccc3ccccc23)CC2(CCCC(COC(=O)NCc3cccc(C(F)(F)F)c3)O2)O1 (some centres not stated) : No
CC[C@@H](c1ccccc1)n1c(=O)n2n(c1=O)[C@H]1[C@H](O)[C@@H]3O[C@@H]3C(=NOCc3ccccc3)[C@H]1CC2 : No
COC(=O)[C@H](C)NC(=O)CCC1CC(OC(=O)NCc2ccc3c(c2)OCO3)CC2(CCCC(COC(=O)NCCC(C)C)O2)O1 (some centres not stated) : Yes
C[C@H]1CC[C@H]2C(=O)O[C@H](CO)CN2[C@@H]1c1ccc(Br)cc1 : Yes

Below: the item to evaluate.
Prompt: Assess whether reported z-score for `C#CCCCON=C1C[C@@H](O)[C@@H](O)[C@@H]2[C@@H]3C(=O)N([C@@H](C)c4ccccc4)C(=O)[C@@H]3CC[C@@H]12` sits at -0.3 or higher.
Response: Yes
